- system.tested: Protein kinase C alpha type (Homo sapiens)
pIC50: −log10 of the molar value.
parameter: pIC50

[[record]]
smiles_representation = "Cc1[nH]c2ncnc(Nc3ccccc3)c2c1C"
parameter = "pIC50"
observed_result = 4.12

[[record]]
smiles_representation = "Clc1cccc(Nc2ncnc3[nH]c4ccccc4c23)c1"
parameter = "pIC50"
observed_result = "< 4.00"

[[record]]
smiles_representation = "Cc1cccc(Nc2ncnc3[nH]c4c(c23)CCCC4)c1"
parameter = "pIC50"
observed_result = "< 4.00"

[[record]]
smiles_representation = "Cc1[nH]c2ncnc(Nc3cccc(Br)c3)c2c1C"
parameter = "pIC50"
observed_result = "< 4.00"

[[record]]
smiles_representation = "Clc1cccc(Nc2ncnc3[nH]c4c(c23)CCCC4)c1"
parameter = "pIC50"
observed_result = "< 4.00"

